biological target: HA of Influenza H3N2 (A/Swine/St. Oedenrode/1996), on infected MDCK cells or on virus (Influenza A virus H3N2 A/Swine/St. Oedenrode/1996 (host Swine)); test: cell-based or functional assay
Result Type: IC50, in vitro virus neutralization on MDCK cells (µg/mL)
State just the number; it will be interpreted in µg/mL.

Entry AT10-002 (antibody, V domains shown) VH: QLQLQESGPRLVKPSETLSLTCSVSGVSISSSNYYWGWIRQPPGKGLEWIGTIYHSGSTYYNPSLKSRLIISVDTSKNQFYLQLTSLTAADSAVYYCATGGGFGWSQTYFGYWGQGTLVTASS VL: QSALTQPASVSGSPGQSITISCTGTSSDVGAYNYVSWYQHHPGKAPKLMIYDVTYRPSGVSTRFSGSKSGNTASLTISGLQAEDEADYYCSSQSRSSTLVIFGGGTKLTVLG has what IC50, in vitro virus neutralization on MDCK cells?
0.3
